Tested on: UACC-257 melanoma
Assay: NCI tumour cell line growth inhibition, 48 h
readout_kind: TGI (µM)
Answers are plain numbers, in µM.

Worked cases, answers included:
{"molecule": "COc1ccc2c(c1)CCC1C2CCC2(C)C1CC[C@@]2(O)CNC(=O)/C=C/c1ccc(O)c(O)c1 (some centres undefined)", "target_desc": "UACC-257 melanoma", "readout_kind": "TGI", "observed_result": 35.7}
{"molecule": "O=C(/C=C/CN1CCCCC1)Nc1cc2c(Nc3ccc(F)c(Cl)c3F)ncnc2cc1OCCOC(F)F", "target_desc": "UACC-257 melanoma", "readout_kind": "TGI", "observed_result": 5.64}
{"molecule": "Oc1ccc(-c2nc(-c3ccc4oc5ccc(-c6[nH]c(-c7ccc(O)cc7)nc6-c6ccccc6)cc5c4c3)c(-c3ccccc3)[nH]2)cc1", "target_desc": "UACC-257 melanoma", "readout_kind": "TGI", "observed_result": 33.6}
{"molecule": "CC(C)(C)OC(=O)N1CC(COS(C)(=O)=O)c2ccc(O)cc21 (centres undefined)", "target_desc": "UACC-257 melanoma", "readout_kind": "TGI", "observed_result": 5.54}

// moving on: another record for TGI
Input: Return value of TGI for input CCCCCCc1cc2cc(C(=O)Nc3cccc(C(F)(F)F)c3)c(=N)oc2cc1O , no commentary.
Output: 8.95

src = PubChem BioAssay (NCI)
